Recorded Endpoint: melting point

Would you please look over these solved cases?
NC1=Nc2ccc(Br)cc2C2CCCC12F (stereo unspecified)    220 °C
NC(=O)c1cccc([N+](=O)[O-])c1N    238 to 239 °C
O=C(NCc1ccc(Cl)cc1)c1cn2c3c(cc(CN4CCOCC4)cc3c1=O)OC(c1ccco1)C2 (stereo unspecified)    220 to 222 °C

I would be grateful if you could share the reported melting point for `Fc1ccc2c(CN3CCc4ccccc4C3)c[nH]c2c1` .
144 to 145 °C

Reported melting point for `COc1ccc(CNc2nnc(N(C)CCCO)c3ccc(Cl)cc23)cc1Cl` : what is it?
115 to 117 °C

Quick one: melting point of `Clc1cc(I)cnc1Cl` ?
55 to 57 °C

If you can, please state the reported melting point value of N#CC=C1CCN(c2ccc(N3CC(CNC(=O)C4CCCN4)OC3=O)cc2F)CC1 (stereo unspecified) .
155 °C

For the compound shown here, `COC(=O)CC[C@H](NC(=O)c1ccc(NCCCc2c(NC(C)=O)nc(NC(C)=O)[nH]c2=O)cc1)C(=O)OC` , give the reported melting point.
135 to 142 °C
